target: UniProtKB Q12809; experiment: Inhibition of wild type human ERG channel expressed in Xenopus laevis oocytes assessed as use dependent steady state block of +20 mV-induced K+ current at 150 uM preincubated for 330 secs followed by pulse train at 1 Hz by two-electrode voltage clamp method; type: cell-based
Sequence (Q12809 whole entry): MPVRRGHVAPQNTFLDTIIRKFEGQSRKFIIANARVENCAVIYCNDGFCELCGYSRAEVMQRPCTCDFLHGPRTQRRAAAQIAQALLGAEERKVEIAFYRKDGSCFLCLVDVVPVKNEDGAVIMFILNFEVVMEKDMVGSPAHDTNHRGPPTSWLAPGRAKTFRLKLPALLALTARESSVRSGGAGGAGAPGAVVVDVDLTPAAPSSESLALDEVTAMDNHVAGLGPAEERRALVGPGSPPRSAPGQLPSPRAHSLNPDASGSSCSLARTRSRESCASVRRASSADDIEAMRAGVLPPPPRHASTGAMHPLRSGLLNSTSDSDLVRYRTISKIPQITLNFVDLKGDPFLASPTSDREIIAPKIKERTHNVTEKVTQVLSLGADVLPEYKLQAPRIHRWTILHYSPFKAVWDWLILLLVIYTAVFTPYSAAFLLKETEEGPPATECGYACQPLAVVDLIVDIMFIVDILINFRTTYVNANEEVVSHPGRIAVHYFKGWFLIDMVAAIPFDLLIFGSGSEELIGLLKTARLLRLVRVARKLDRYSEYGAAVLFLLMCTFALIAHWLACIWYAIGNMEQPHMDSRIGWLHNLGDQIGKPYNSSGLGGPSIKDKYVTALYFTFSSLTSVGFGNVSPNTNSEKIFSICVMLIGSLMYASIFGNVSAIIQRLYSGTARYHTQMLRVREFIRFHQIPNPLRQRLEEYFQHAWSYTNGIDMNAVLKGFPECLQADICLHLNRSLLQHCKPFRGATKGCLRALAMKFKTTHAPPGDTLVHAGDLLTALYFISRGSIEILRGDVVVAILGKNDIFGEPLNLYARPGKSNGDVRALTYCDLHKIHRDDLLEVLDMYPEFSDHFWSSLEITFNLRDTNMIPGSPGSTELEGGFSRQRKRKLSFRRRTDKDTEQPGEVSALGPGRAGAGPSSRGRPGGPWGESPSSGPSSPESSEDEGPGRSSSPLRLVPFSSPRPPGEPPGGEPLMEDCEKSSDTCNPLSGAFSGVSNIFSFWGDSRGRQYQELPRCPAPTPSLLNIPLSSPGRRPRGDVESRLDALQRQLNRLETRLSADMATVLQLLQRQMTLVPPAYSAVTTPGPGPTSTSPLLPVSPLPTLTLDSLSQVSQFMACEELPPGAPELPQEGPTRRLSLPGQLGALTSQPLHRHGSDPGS
Measurement Kind: inhibition at 330 s, 150 µM (%)
Quick reminder: number only, in %, skip the unit.

// sample O=C(CCc1ccccc1)c1ccccc1OCC(O)CN1CCN(C(c2ccccc2)(c2ccccc2)c2ccccc2)CC1 (stereo unspecified) , its inhibition at 330 s, 150 µM was 69
